Tested on: Rattus norvegicus
Method notes: Percent change in immune R16 inflammatory lesions in rat adjuvant-induced arthritis at 50 mg/kg
Format: functional
In this section we review reported Change values for a set of compounds.
Measure: Change (%)

[[record]]
chemical_string = "COc1ccc(-c2nc3n(c2-c2ccccc2)CCS3)cc1"
u = "%"
observed = 1

[[record]]
chemical_string = "Brc1ccc(-c2nc3n(c2-c2ccc(Br)cc2)CCS3)cc1"
u = "%"
observed = -46

[[record]]
chemical_string = "FC(F)(F)COc1ccc(-c2nc3n(c2-c2ccc(OCC(F)(F)F)cc2)CCS3)cc1"
u = "%"
observed = -3

[[record]]
chemical_string = "CCN(C)c1ccc(-c2nc3n(c2-c2ccc(N(C)CC)cc2)CCS3)cc1"
u = "%"
observed = -36

[[record]]
chemical_string = "CSc1ccc(-c2c(-c3ccc(F)cc3)nc3n2CCS3)cc1"
u = "%"
observed = -30

[[record]]
chemical_string = "COc1ccc(-c2nc3n(c2-c2ccccc2)CCS3)cc1OC"
u = "%"
observed = -6

[[record]]
chemical_string = "Fc1cccc(-c2nc3n(c2-c2cccc(F)c2)CCS3)c1"
u = "%"
observed = 3

[[record]]
chemical_string = "CC(C)(C)C(=O)Nc1ccc(-c2nc3n(c2-c2ccc(NC(=O)C(C)(C)C)cc2)CCS3)cc1"
u = "%"
observed = -1

[[record]]
chemical_string = "CC(=O)Oc1ccc(-c2nc3n(c2-c2ccc(OC(C)=O)cc2)CCS3)cc1"
u = "%"
observed = -17

[[record]]
chemical_string = "CCSc1nc(-c2ccc(OC)cc2)c(-c2ccc(OC)cc2)[nH]1"
u = "%"
observed = -37

[[record]]
chemical_string = "COc1ccc(-c2nc3n(c2-c2ccc(OC)cc2)CCS3)cc1"
u = "%"
observed = -21

[[record]]
chemical_string = "CCOc1ccc(-c2nc3n(c2-c2ccc(OCC)cc2)CCS3)cc1"
u = "%"
observed = -32

[[record]]
chemical_string = "Nc1ccc(-c2nc3n(c2-c2ccc(N)cc2)CCS3)cc1"
u = "%"
observed = 0

[[record]]
chemical_string = "COc1ccccc1-c1nc2n(c1-c1ccccc1OC)CCS2"
u = "%"
observed = -7

[[record]]
chemical_string = "COc1ccc(-c2nc3n(c2-c2ccc(OC)c(OC)c2)CCS3)cc1OC"
u = "%"
observed = 5

[[record]]
chemical_string = "Fc1ccc(-c2nc3n(c2-c2ccc(F)cc2)CCS3)cc1"
u = "%"
observed = -49

[[record]]
chemical_string = "CSc1ccc(-c2nc3n(c2-c2ccc(F)cc2)CCS3)cc1"
u = "%"
observed = 6

[[record]]
chemical_string = "COc1cccc(-c2nc3n(c2-c2cccc(OC)c2)CCS3)c1"
u = "%"
observed = -16

[[record]]
chemical_string = "Cl.Fc1ccc(-c2nc3n(c2-c2ccc(F)cc2)CCS3)cc1"
u = "%"
observed = -49

[[record]]
chemical_string = "COc1ccc(-c2nc(SC)n(C)c2-c2ccc(OC)cc2)cc1"
u = "%"
observed = -35

[[record]]
chemical_string = "COc1ccc(-c2nc3n(c2-c2ccc(OC)c(F)c2)CCS3)cc1F"
u = "%"
observed = -3

